Tested on: CD8 T cells from blood of healthy donors
protocolText: Immunogenicity analysis of HLA class I ligands: aAPC priming of CD8 T cells, MHC-multimer staining
Assay type: cell-based, human
experimentalConditions: immunogenicity of MUC16/CA-125 ligands, HLA allotype as in Table 11
Experimental: Priming of peptide specific cytotoxic lymphocytes (CTLs) was conducted using an established protocol involving artificial antigen presenting cells (aAPCs) (30). aAPCs consisted of streptavidin-coated polystyrene beads (5.6 μm in diameter; Bangs Laboratories, Fishers, Ind.). […] T cells were isolated from whole blood of healthy donors using a CD8 magnetic cell isolation kit (Miltenyi). […] T-cell priming was assessed by MHC-multimer staining one week after the last stimulation round. […]
assayReadout: positive/tested donors

{"substance": "11 (ETILTFHAF; listed as Homo sapiens) [compound 11]", "reportedMeasurement": "2/2"}
{"substance": "53 (SPSKAFASL; listed as Homo sapiens) [compound 53]", "reportedMeasurement": "2/2"}
{"substance": "549 (TYSEKTTLF; listed as Homo sapiens) [compound 549]", "reportedMeasurement": "2/2"}
{"substance": "5 (AVTNVRTSI; listed as Homo sapiens) [compound 5]", "reportedMeasurement": "1/3"}
{"substance": "14 (EVTSSGRTSI; listed as Homo sapiens) [compound 14]", "reportedMeasurement": "2/3"}
{"substance": "10 (ERSPVIQTL; listed as Homo sapiens) [compound 10]", "reportedMeasurement": "1/2"}
{"substance": "13 (EVITSSRTTI; listed as Homo sapiens) [compound 13]", "reportedMeasurement": "1/1"}
{"substance": "8 (DPYKATSAV; listed as Homo sapiens) [compound 8]", "reportedMeasurement": "3/3"}
{"substance": "50 (SPQNLRNTL; listed as Homo sapiens) [compound 50]", "reportedMeasurement": "1/1"}
{"substance": "48 (SPHPVTALL; listed as Homo sapiens) [compound 48]", "reportedMeasurement": "0/1"}
{"substance": "18 (FQRQGQTAL; listed as Homo sapiens) [compound 18]", "reportedMeasurement": "1/6"}
{"substance": "34 (LPHSEITTL; listed as Homo sapiens) [compound 34]", "reportedMeasurement": "0/2"}
{"substance": "72 (TPGNRAISL; listed as Homo sapiens) [compound 72]", "reportedMeasurement": "2/2"}
{"substance": "23 (GTSGTPVSK; listed as Homo sapiens) [compound 23]", "reportedMeasurement": "0/5"}
{"substance": "12 (EVISSRGTSM; listed as Homo sapiens) [compound 12]", "reportedMeasurement": "1/3"}
{"substance": "548 (KMISAIPTL; listed as Homo sapiens) [compound 548]", "reportedMeasurement": "4/6"}
{"substance": "63 (SVLADLVTTK; listed as Homo sapiens) [compound 63]", "reportedMeasurement": "0/1"}
{"substance": "547 (IITEVITRL; listed as Homo sapiens) [compound 547]", "reportedMeasurement": "3/10"}
{"substance": "62 (STSQEIHSATK; listed as Homo sapiens) [compound 62]", "reportedMeasurement": "2/6"}
{"substance": "77 (VPRSAATTL; listed as Homo sapiens) [compound 77]", "reportedMeasurement": "1/2"}

====

Test system: CD8 T cells from blood of healthy donors
protocolText: Immunogenicity analysis of HLA class I ligands: aAPC priming of CD8 T cells, MHC-multimer staining
Type: cell-based, human
experimentalConditions: immunogenicity of MUC16/CA-125 ligands, HLA allotype as in Table 11

{"substance": "7 (DALVLKTV; listed as Homo sapiens) [compound 7]", "positive/tested donors": "1/3"}
{"substance": "2 (STETSTVLY; listed as Homo sapiens) [compound 2]", "positive/tested donors": "0/2"}
{"substance": "56 (SQGFSHSQM; listed as Homo sapiens) [compound 56]", "positive/tested donors": "4/5"}
